The origin of these recorded values is paper PMC7024302.

Test system: K. aerogenes ATCC 13048
Type: cell-based, Klebsiella aerogenes
Settings: ATCC 13048, 18 h
Residues, ends and D or L forms follow the SMILES beside them.
recordedMetric: MIC E2 (µg/mL)

[
  {
    "compound": "CCCCCCCCCCCCCC(=O)N[C@@H](CC(C)C)C(=O)N[C@@H](CCCNC(=N)N)C(=O)N[C@@H](CCCNC(=N)N)C(N)=O [compound 46, C14-LRR-NH2] (HELM PEPTIDE1{[CCCCCCCCCCCCCC(=O)[*:2]].L.R.R.[am]}$$$$V2.0)",
    "studyTarget": "K. aerogenes ATCC 13048",
    "MIC E2 / µg/mL": 128
  }
]

P. CCCCCCCCCCCCCC(=O)N[C@H](C(=O)N[C@@H](CCCNC(=N)N)C(=O)N[C@@H](CCCNC(=N)N)C(N)=O)C(C)C [compound 94, C14-VRR-NH2] (HELM PEPTIDE1{[CCCCCCCCCCCCCC(=O)[*:2]].V.R.R.[am]}$$$$V2.0)
Q. CCCCCCCCCCCCCC(=O)N[C@@H](Cc1c[nH]c2ccccc12)C(=O)N[C@@H](CCCNC(=N)N)C(=O)N[C@@H](CCCNC(=N)N)C(N)=O [compound 98, C14-WRR-NH2] (HELM PEPTIDE1{[CCCCCCCCCCCCCC(=O)[*:2]].W.R.R.[am]}$$$$V2.0)
Could you check which of P and Q has a smaller value for MIC E2? Answer with the label corresponding to your selection.
Q
(Q: 32 µg/mL, P: 128 µg/mL)
